- System: NCI-H226 lung
- assay.info: NCI-60 one-dose screen, 48 h (100 = growth as untreated, 0 = no growth, -100 = all killed)
- settings: 10 µM unless noted
- Description: Growth inhibition of the NCI-H226 human Non-Small Cell Lung tumor cell line is measured as a screen for anti-cancer activity. Cells are grown in 96 well plates and exposed to the test compound for 48 hours. Compounds are tested at a single concentration, which is 10^-5 M for most compounds. The reported endpoint is percent growth (GI% or GIPRCNT), where numbers from 0 - 100% represent growth inhibition, and numbers from -100% - 0 represent cell death. […]
The panel holds about 83,000 compounds, 20% with a hit somewhere; the sample as a whole holds those more often.
For each of the compounds below, state its growth.
A number alone suffices; assume %.

Lookup: Endpoint output: growth of O=C1CCN2C(=O)Nc3ccccc3C2C1 (stereo unspecified) . Value?
Found: 104

Lookup: Now the compound `O=c1[nH]c(=S)[nH]c2nc[nH]c12`
Found: 99.8

Lookup: Now the compound `COc1ccc2nc(-c3cc(-c4cc(OC)c(OC)c(OC)c4)n[nH]3)[nH]c2c1`
Found: -48.9

Lookup: Now the compound `Nc1ccc(Br)cn1`
Found: 99.9

Lookup: Now the compound `Clc1cc(Cl)cc(Nc2ccc3c(OCCCN4CCOCC4)cccc3n2)c1`
Found: 26.6

Lookup: Now the compound `C=C1C(=O)O[C@H]2[C@H]1CC/C(Cn1cc(-c3ccc(F)cc3)nn1)=C\CC[C@@]1(C)O[C@@H]21`
Found: -31.3

Lookup: Now the compound `COc1cccc(-c2nn(-c3ccccc3)cc2-c2ccnc(NCCCO)c2)c1`
Found: 69.2

Lookup: Now the compound `CCCCn1c(-c2ccc(O)cc2)cn2c3c(=O)[nH]c(=O)n(C)c3nc12`
Found: 85

Lookup: Now the compound `COc1cc(/C=C/c2cc(/C=C/c3ccc(O)c(OC)c3)n(-c3ccc(Cl)cc3)c(=O)n2)ccc1O`
Found: 91.3

Lookup: Now the compound `Cn1cc(-c2csc(-c3cn(C(=O)OC(C)(C)C)c4ccccc34)n2)c2cccnc21`
Found: 91.4

Lookup: Now the compound N#CC1=C(N)Oc2ccc3ccccc3c2C1c1ccccc1 (stereo unspecified)
Found: 51.6

Lookup: Now the compound `C#Cc1cc2c(N)c(C(=O)c3cc(OC)c(OC)c(OC)c3)[nH]c2cc1OC`
Found: 50

Lookup: Now the compound `C[N+](C)(CCCCCC[N+](C)(C)C1c2ccccc2-c2ccccc21)C1c2ccccc2-c2ccccc21`
Found: 108

Lookup: Now the compound CCSc1ncnc2c1ncn2C1OC(CO)C(O)C1O (stereo unspecified)
Found: 62.9

Lookup: Now the compound `Oc1ccccc1/C=N\NC(=S)Nc1ccc(F)cc1`
Found: 25.7

Lookup: Now the compound `C[Si](C)(C)Cc1ccccc1`
Found: 114

Lookup: Now the compound `C[C@@H](C(=O)O)c1ccc2c3cc(Cl)ccc3n(Cc3cc(=O)oc4ccc(Cl)cc34)c2c1`
Found: 103

Lookup: Now the compound `C=C(C)[C@@H]1CC[C@]2(CN)CC[C@]3(C)[C@H](CC[C@@H]4[C@@]5(C)CCC(=O)NC(C)(C)[C@@H]5CC[C@]43C)[C@@H]12`
Found: 88.1

Lookup: Now the compound N#CC1=C(N)Oc2ccc3ccccc3c2C1c1ccccc1Cl (stereo unspecified)
Found: 70.8

Lookup: Now the compound `COc1ccc(-c2cc(/C=C/C(=O)c3ccc(OC)c(OC)c3)[nH]n2)cc1`
Found: 50.9

Lookup: Now the compound `COc1cc(-c2cc3ncccc3c3nc(OCCN(C)C)c4cccnc4c23)cc(OC)c1OC`
Found: -5.43

Cited source: PubChem BioAssay (NCI)
